Recorded below: GI50, system Renal Cancer panel.
Value and unit, in that order.

These recorded examples may help you get a feel for the data.
molecule | GI50
O=c1cc(-c2ccccc2)oc2cc(OCCCC[P+](c3ccc(F)cc3)(c3ccc(F)cc3)c3ccc(F)cc3)cc(O)c12 [3d] | 2.1 µM
O=c1cc(-c2ccccc2)oc2cc(OCCCC[P+](C3CCCCC3)(C3CCCCC3)C3CCCCC3)cc(O)c12 [3e] | 1.3 µM
O=c1cc(-c2ccccc2)oc2cc(OCCCC[P+](c3ccccc3)(c3ccccc3)c3ccccn3)cc(O)c12 [3h] | 1.35 µM

stdin: Short answer please: GI50, Renal Cancer panel, entry Cc1ccccc1[P+](CCCCOc1cc(O)c2c(=O)cc(-c3ccccc3)oc2c1)(c1ccccc1C)c1ccccc1C [3g]
stdout: 0.58 µM
